ASSAYED SYSTEM: human OX2 receptor (Homo sapiens, UniProt O43614)
Construct: expressed in transfected cells
Sequence (O43614 whole entry): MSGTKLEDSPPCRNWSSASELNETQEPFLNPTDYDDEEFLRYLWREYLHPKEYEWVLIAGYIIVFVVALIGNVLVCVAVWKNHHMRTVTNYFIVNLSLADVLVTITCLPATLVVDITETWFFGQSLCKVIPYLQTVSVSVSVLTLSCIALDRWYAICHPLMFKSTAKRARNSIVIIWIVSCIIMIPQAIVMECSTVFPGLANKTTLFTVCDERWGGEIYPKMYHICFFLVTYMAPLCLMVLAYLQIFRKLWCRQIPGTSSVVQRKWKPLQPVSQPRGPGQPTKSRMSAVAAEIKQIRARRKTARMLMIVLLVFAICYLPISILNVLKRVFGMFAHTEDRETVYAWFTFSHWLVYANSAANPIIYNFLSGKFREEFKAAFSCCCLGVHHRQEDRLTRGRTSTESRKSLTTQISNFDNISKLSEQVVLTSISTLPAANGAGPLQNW
PROCEDURE SUMMARY: Measurement of orexin type 2 receptor agonist activity (calcium fluorescence, Fluo-4, FDSS)
Assay type: cell-based
MEASUREMENT CONTEXT: 3 uM test compound; CHO cells expressing human OX2 receptor; DMSO = 0%, 10 nM orexin A (human) = 100%
MEASURE: OX2R agonist activity (3 uM, %)

# MOL, MEASURE, RESULT
rows = [
    ("CS(=O)(=O)N[C@@H]1CN2C(=O)N(c3noc4ccc(F)c(-c5c(F)cc(F)cc5F)c34)CC[C@@H]2C1(F)F", "OX2R agonist activity (3 uM, %)", 100),
    ("O=c1n(-c2noc3cc(C(F)F)cc(-c4c(F)cccc4F)c23)cc2n1C[C@@H](NS(=O)(=O)CF)C2(F)F", "OX2R agonist activity (3 uM, %)", 101),
]

P: CCS(=O)(=O)N[C@@H]1CN2C(=O)N(c3noc4cccc(C5CCC5)c34)CC[C@@H]2C1(F)F
Q: CCS(=O)(=O)N[C@@H]1CN2C(=O)N(c3noc4cccc(-c5nccs5)c34)CC[C@@H]2C1(F)F
When P and Q are compared, which has the higher number for OX2R agonist activity (3 uM, %)? Bench note: the answer is the label of the chosen record.
Q

* * *

ASSAYED SYSTEM: human OX2 receptor (Homo sapiens, UniProt O43614)
Construct: expressed in transfected cells
PROCEDURE SUMMARY: Measurement of orexin type 2 receptor agonist activity (calcium fluorescence, Fluo-4, FDSS)
Assay type: cell-based
MEASUREMENT CONTEXT: 3 uM test compound; CHO cells expressing human OX2 receptor; DMSO = 0%, 10 nM orexin A (human) = 100%
MEASURE: OX2R agonist activity (3 uM, %)

# COMPOUND, MEASURE, RESULT
data = [
    ("CS(=O)(=O)N[C@@H]1Cn2c(cn(-c3noc4cc(OC(F)(F)F)cc(-c5c(F)cc(F)cc5F)c34)c2=O)C1(F)F [Example 176]", "OX2R agonist activity (3 uM, %)", 89),
    ("CCS(=O)(=O)N[C@H]1Cn2c(cn(-c3noc4cccc(-c5c(F)cccc5F)c34)c2=O)[C@@H]1C (relative stereo) [Example 131]", "OX2R agonist activity (3 uM, %)", 96),
    ("O=C1N(c2noc3ccc(F)c(-c4c(F)cc(F)cc4F)c23)CC[C@H]2N1C[C@@H](NS(=O)(=O)CF)C2(F)F [Example 207]", "OX2R agonist activity (3 uM, %)", 113),
    ("CCS(=O)(=O)N[C@@H]1CN2C(=O)N(c3noc4cc(Cl)cc(-c5c(F)cccc5F)c34)C[C@@H]2C1(F)F [Example 67]", "OX2R agonist activity (3 uM, %)", 97),
    ("CS(=O)(=O)N[C@@H]1CN2C(=O)N(c3noc4ccc(F)c(-c5c(F)cc(F)cc5F)c34)C[C@@H]2C1(F)F [Example 47]", "OX2R agonist activity (3 uM, %)", 91),
    ("O=C1N(c2noc3cc(F)cc(-c4c(F)cc(F)cc4F)c23)CC[C@H]2N1C[C@@H](NS(=O)(=O)CF)C2(F)F [Example 236]", "OX2R agonist activity (3 uM, %)", 108),
    ("COCc1cc2onc(N3CC[C@H]4N(C[C@@H](NS(C)(=O)=O)C4(F)F)C3=O)c2c(-c2c(F)cccc2F)c1F [Example 238]", "OX2R agonist activity (3 uM, %)", 106),
    ("CCS(=O)(=O)N[C@H]1C[C@H]2CN(c3noc4cccc(-c5c(F)cccc5C(F)(F)F)c34)C(=O)N2C1 [Example 32]", "OX2R agonist activity (3 uM, %)", 94),
    ("CCS(=O)(=O)N[C@@H]1CN2C(=O)N(c3noc4cc(F)cc(-c5c(F)cc(F)cc5F)c34)C[C@@H]2C1(F)F [Example 124]", "OX2R agonist activity (3 uM, %)", 101),
    ("CS(=O)(=O)N[C@@H]1Cn2c(cn(-c3noc4cc(Cl)c(F)c(-c5c(F)cc(F)cc5F)c34)c2=O)C1(F)F [Example 106]", "OX2R agonist activity (3 uM, %)", 103),
    ("COCc1cc(-c2c(F)cc(F)cc2F)c2c(N3CC[C@H]4N(C[C@@H](NS(=O)(=O)C5CC5)C4(F)F)C3=O)noc2c1 [Example 222]", "OX2R agonist activity (3 uM, %)", 107),
    ("Cc1cc(-c2c(F)cc(F)cc2F)c2c(-n3cc4n(c3=O)CC(NS(C)(=O)=O)C(F)(F)C4)noc2n1 (single isomer, unassigned) [Example 245]", "OX2R agonist activity (3 uM, %)", 108),
    ("CS(=O)(=O)N[C@@H]1CN2C(=O)N(c3noc4cccc(-c5c(F)cc(F)cc5F)c34)C[C@@H]2C1(F)F [Example 71]", "OX2R agonist activity (3 uM, %)", 97),
]
